The values you see were collected from patent US20230017045A1.

Listed below: pest or weed control at 140 g/ha values for each entry.
Tested on: test plant species
Experiment: Post-emergent herbicidal activity test (greenhouse, foliar spray, visual growth reduction)
Format: in vivo
Details: post-emergence, 336 h, SETFA: giant foxtail (Setaria faberi), 140 g ai/ha, 14 days after application, read-out: Visual Growth Reduction (%) 14 Days After Application, SETFA

Form field pest or weed control at 140 g/ha, entry COC(=O)c1nc(-c2ccc3c(c2)C(F)(F)OC(F)(F)O3)c(F)cc1Cl : 0 to 29%

Form field pest or weed control at 140 g/ha, entry COC(=O)c1nc(-c2ccc(C(F)(F)F)c(Cl)c2)ccc1Cl : 0 to 29%

Form field pest or weed control at 140 g/ha, entry COC(=O)c1nc(-c2ccc(Cl)c(CF)c2F)ccc1Cl : 0 to 29%

Form field pest or weed control at 140 g/ha, entry COC(=O)c1nc(-c2ccc(C(F)(F)F)cc2C#N)ccc1Cl : 45 to 59%

Form field pest or weed control at 140 g/ha, entry COC(=O)c1nc(-c2ccc(C(F)(F)F)nc2)c(O)cc1Cl : 0 to 29%

Form field pest or weed control at 140 g/ha, entry COC(=O)c1nc(-c2ccc(C(F)(F)F)cc2Cl)ncc1Cl : 60 to 74%

Form field pest or weed control at 140 g/ha, entry COC(=O)c1nc(-c2ccc(C(F)(F)F)cc2OC)c(F)cc1Cl : 85 to 94%
